- assayed target: T1, human VIP (human)
- T1 construct: also called Vasoactive Intestinal Peptide
- T1 peptide: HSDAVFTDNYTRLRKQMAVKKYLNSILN
- measurement protocol: SPR, Ab immobilised
# Condition met = kon below 200000 M⁻¹ s⁻¹ (exclusive); Condition not met = kon at/above 200000 M⁻¹ s⁻¹

A selection of reference data follows.
# binder, category label
measured = [
    ("anti-PACAP antibody Ab4.H (antibody, human IgG1, kappa, N297A, V domains shown, humanized form of Ab4, full length) VH: EVQLVESGGGLVQPGGSLRLSCAASGFSLSSYDMSWVRQAPGKGLEWIGIINTNDDTWYASWVKGRFTISRDNSKNTLYLQMNSLRAEDTAVYYCARISDAYVFDYAYYFTLWGQGTLVTVSS VL: DIQMTQSPSTLSASVGDRVTITCLASQNIYNSLAWYQQKPGKAPKLLIYRASTLASGVPSRFSGSGSGTEFTLTISSLQPDDFATYYCQQGAGADNIGNPFGGGTKVEIKR", "Condition not met"),
    ("anti-PACAP antibody Ab18 (antibody, human IgG1, kappa, N297A, V domains shown, full-length rabbit/human chimeric antibody) VH: QSVEESGGRLVTPGTPLTLTCTVSGFSLSSAALSWVRQAPGKGLEWIGIIDKGVMSYYASWAKGRFTISKTSSTTVDLKVTSPTTEDTATYFCARGGGEFFIWGQGTLVTVSS VL: AQVLTQTPSSVSAAVGGTVTINCQSSKSVYNNNWLSWYQQKPGQPPKFLIYQASNLASGVPSRFKGSGSGTQFTLTISDLECDDAATYYCAGGYSGNIVGFGGGTEVVVKR", "Condition not met"),
    ("anti-PACAP antibody Ab1.H (antibody, human IgG1, kappa, N297A, V domains shown, humanized form of Ab1, full length) VH: EVQLVESGGGLVQPGGSLRLSCAASGFTVSSAVMNWVRQAPGKGLEWIGSIVASGTTYYASSANGRFTISRDNSKNTLYLQMNSLRAEDTAVYYCARGGGEFFIWGQGTLVTVSS VL: DIQMTQSPSTLSASVGDRVTITCQSSESVYSNYLSWYQQKPGKAPKFLIYQASNLASGVPSRFSGSGSGTEFTLTISSLQPDDFATYYCAGGYSENIVGFGGGTKVEIKR", "Condition met"),
]

Query string: Bench note: check whether anti-PACAP antibody Ab4 (antibody, human IgG1, kappa, N297A, V domains shown, full-length rabbit/human chimeric antibody) VH: QSVEESGGRLVTPGTPLTLTCTVSGFSLSSYDMSWVRQAPGKGLEYIGIINTNDDTWYASWVKGRFTISKTSSTTVDLKMTSLTTEDTATYFCARISDAYVFDYAYYFTLWGQGTLVTVSS VL: ALVMTQTPSSVSAAVGGTVTINCLASQNIYNSLAWYQQKPGQPPKLLIYRASTLASGVSSRFKGSGSGTQFTLTISGVECADAATYYCQQGAGADNIGNPFGGGTEVVVKR shows kon below 200000 M⁻¹ s⁻¹
Result string: Condition met
